IC50 tested on UniProt:P24941: recorded values

QUERY: Could you tell me which IC50 is on file for `COC(=O)c1ccc2c(c1)C(c1ccccc1)=Nc1c[nH]nc1N2` ?
RESULT: 1 to 9.99 µM

QUERY: Would you mind doing `Cc1cccc(-c2[nH]nc3c2N=C(c2ccccc2Cl)c2cc([N+](=O)[O-])ccc2N3)c1` as well?
RESULT: 1 to 9.99 µM

QUERY: Same question, `N#Cc1ccccc1-c1[nH]nc2c1N=C(c1ccccc1Cl)c1cc([N+](=O)[O-])ccc1N2` this time
RESULT: 1 to 9.99 µM
